- Protocol description: COS7 lysate on small-molecule microarray, probe aHis, 635 nm (AID 1123);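 note: z-score combines 667nm fluorescence intensity with signal-to-noise per printed compound spot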
- Experimental context: COS7 cell lysate, fluorescence, higher = more signal
Label scheme for composite z-score: lower than 0.6 is No, 0.6 and above is Yes.

Worked examples, 5 compounds total:
>  <Compound>
COCCOC(=O)N1C(=O)[C@@]2(c3cc(C#CCNC(N)=O)ccc31)[C@H](c1ccccc1OCCO)N1[C@H](c3ccccc3)[C@H](c3ccccc3)OC(=O)[C@H]1[C@@H]2C(N)=O

>  <Assigned label>
No

$$$$
>  <Compound>
Cc1ccc(S[C@]2(C(=O)NCCN3CCOCC3)CC(=O)N(Cc3cc(C(F)(F)F)cc(C(F)(F)F)c3)[C@@H]2c2ccc(CO)cc2I)cc1

>  <Assigned label>
No

$$$$
>  <Compound>
CN1C(=O)C2C=CC(C(O)c3ccccn3)N(Nc3ccccc3)C2C1=O (configuration not stated)

>  <Assigned label>
No

$$$$
>  <Compound>
C=CCC(OC(C)=O)[C@@H]1[C@@H](N(Cc2cccc3ccccc23)C(=O)c2cccc3ccccc23)c2cc(OCCCO)ccc2N1C(=O)c1ccc2ccccc2n1 (some centres not stated)

>  <Assigned label>
Yes

$$$$
>  <Compound>
O=C/C=C/c1ccc2c(c1)OCO2

>  <Assigned label>
No

$$$$

Consider the record given below.
Request: Answer whether composite z-score of COc1cc(C(O)C2C=CC3C(=O)N(c4ccccc4)C(=O)C3N2Nc2ccc(C#N)cc2)cc(OC)c1OC (configuration not stated) is greater than or equal to 0.6.
Result: Yes

----------
Below: a set of entries, each annotated with reported z-score.
- Protocol description: modulators of S6 phosphorylation in cells, primary screen, cell-based, A549, cytoblot, luminescence, serum-stimulated (AID 1158);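 note: serum-stimulated A549 lung adenocarcinoma cells; signal is phosphorylated S6 detected by cytoblot immunostaining with HRP secondary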
- Experimental context: A549 phospho-S6 cytoblot, 5 h, higher = more signal
Please reply with the number alone, leaving off any unit.

See these solved cases before continuing.
>  <Molecule>
COCCOC(=O)N1C(=O)[C@@]2(c3ccccc31)[C@H](C(=O)NC[C@H](O)c1ccccc1)[C@H]1C(=O)O[C@H](c3ccccc3)[C@H](c3ccccc3)N1[C@@H]2c1ccc(OCCO)cc1

>  <Recorded number>
0.29

$$$$
>  <Molecule>
CCOC(=O)C[C@H]1[C@H](OC(=O)c2ccccc2-c2ccccc2)[C@@H](NC(=O)Cc2ccc(OC)cc2)c2cc(OCCCO)ccc2N1C(=O)c1ccccc1

>  <Recorded number>
-0.127

$$$$
>  <Molecule>
[N-]=[N+]=NCc1ccccc1C[C@@]1(C(=O)NCC(O)CO)N=C(c2ccc(OCCCO)cc2)O[C@@H]1c1ccccc1CN=[N+]=[N-] (stereo not given in full)

>  <Recorded number>
-0.324

$$$$
>  <Molecule>
C=CCOC(=O)[C@H]1[C@@H]2C(=O)O[C@@H](c3ccccc3)[C@@H](c3ccccc3)N2[C@@H](c2ccc(OCCOC(=O)[C@@H]3C[C@@H]4C(=O)N5CCC[C@H]5C(=O)N4[C@@H]3c3ccc(O)cc3)cc2)[C@]12C(=O)Nc1ccccc12

>  <Recorded number>
0.193

$$$$

Shift focus to the following entry.
Request: # return recorded z-score for entry COc1ccc([Si](C)(C)[C@@H]2[C@@H](CCn3cc([C@H](O)c4ccccc4)nn3)O[C@]3(C(=O)N(Cc4ccc(N5C(=O)c6cccc7cccc5c67)cc4)c4ccccc43)[C@H]2C)cc1
Result: 1.11

----------
- Protocol description: small-molecule microarray binders of probe aLefty2, primary screen, biochemical, biotinylated probe, 635/667 nm fluorescence (AID 1094);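 note: score merges spot fluorescence near 667 nm with spot signal-to-noise ratio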
- Experimental context: higher = more signal
Below: a set of entries, each annotated with reported composite z-score.
Please reply with the number alone, leaving off any unit.

See these solved cases before continuing.
>  <Molecule>
CN1C(=O)C2C=CC(C(O)c3ccccn3)N(Nc3ccccc3)C2C1=O (centres undefined)

>  <composite z-score>
0.0524

$$$$
>  <Molecule>
CCOC(=O)C[C@H]1[C@H](OC(=O)Cc2ccc3c(c2)OCO3)[C@@H](NC(=O)c2ccc(-c3ccccc3)cc2)c2cc(OCCCO)ccc2N1C(=O)c1ccccc1

>  <composite z-score>
-0.137

$$$$
>  <Molecule>
CCCCC(CC)C(O)C1C=CC2C(=O)N(c3ccccc3)C(=O)C2N1Nc1ccccc1 (centres undefined)

>  <composite z-score>
0.0319

$$$$

Request: # return recorded composite z-score for entry COCCOC(=O)N1C(=O)[C@@]2(c3cc(C#CCC(C(=O)OC)C(=O)OC)ccc31)[C@H](c1ccccc1OCCO)N1[C@H](c3ccccc3)[C@H](c3ccccc3)OC(=O)[C@H]1[C@@H]2C(N)=O
Result: 0.0074

Request: # return recorded composite z-score for entry CC(C)(C)N1CC=CC23O[C@@H]4C=CCOC(=O)[C@@H]4[C@H]2C(=O)N(CCCCCO)[C@@H]3C1=O (some centres undefined)
Result: -0.215

Request: # return recorded composite z-score for entry CCCCCCCCCCC(O)C1C=CC2C(=O)N(Cc3ccccc3)C(=O)C2N1n1cnnc1 (centres undefined)
Result: 0.326

----------
- Target or test system: NADPH oxidase 4 (Homo sapiens) (UniProt Q9NPH5)
- Sequence (Q9NPH5 whole entry, looked up): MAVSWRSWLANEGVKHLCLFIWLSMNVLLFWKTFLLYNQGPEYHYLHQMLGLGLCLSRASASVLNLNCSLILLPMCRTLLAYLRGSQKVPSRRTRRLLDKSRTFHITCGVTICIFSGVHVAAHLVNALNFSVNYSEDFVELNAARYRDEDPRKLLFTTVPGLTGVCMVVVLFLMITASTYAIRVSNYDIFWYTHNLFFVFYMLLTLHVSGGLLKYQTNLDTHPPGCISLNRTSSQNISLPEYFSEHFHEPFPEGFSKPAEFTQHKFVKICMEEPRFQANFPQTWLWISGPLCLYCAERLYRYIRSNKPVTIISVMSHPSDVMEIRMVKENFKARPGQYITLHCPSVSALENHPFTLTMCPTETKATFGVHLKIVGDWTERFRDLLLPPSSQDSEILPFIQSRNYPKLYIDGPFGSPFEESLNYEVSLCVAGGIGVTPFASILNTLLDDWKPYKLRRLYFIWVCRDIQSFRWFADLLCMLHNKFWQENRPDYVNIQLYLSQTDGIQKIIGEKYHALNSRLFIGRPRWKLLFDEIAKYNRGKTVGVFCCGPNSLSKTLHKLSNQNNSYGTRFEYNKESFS
- Protocol description: NOX4-dependent H2O2 signal modulators, primary screen, NOX inhibitor project, cell-based, HEK293-NOX4, tetracycline-induced, Amplex Red fluorescence (AID 1160)
- Experimental context: 45 min, higher = more signal, called active from +8 up or from −8 down
Measured metric: z-score
Please reply with the number alone, leaving off any unit.

See these solved cases before continuing.
>  <Compound>
C=C(CCCC)/C(=C/C[C@H](OC(C)=O)c1ccc(CO)o1)c1cnc2ccccc2c1

>  <z-score>
-0.447

$$$$
>  <Compound>
[N-]=[N+]=NCc1ccccc1C[C@]1(C(=O)NCCN2CCOCC2)N=C(c2ccc(OCCCO)cc2)O[C@H]1c1ccccc1N=[N+]=[N-]

>  <z-score>
0.636

$$$$
>  <Compound>
[N-]=[N+]=NCc1ccccc1C[C@]1(C(=O)NCC(O)CO)N=C(c2ccc(OCCCO)cc2)O[C@H]1c1ccccc1N=[N+]=[N-] (stereo not given in full)

>  <z-score>
-0.154

$$$$
>  <Compound>
C=C(COC)C(=O)CC[C@@H](OC(=O)c1cccnc1)c1ccc(CO)o1

>  <z-score>
0.304

$$$$
>  <Compound>
COc1ccc([Si](C)(C)[C@@H]2[C@@H](CCn3cc([C@H](O)c4ccccc4)nn3)O[C@]3(C(=O)N(Cc4ccc(N5C(=O)c6cccc7cccc5c67)cc4)c4ccccc43)[C@H]2C)cc1

>  <z-score>
1.01

$$$$

Request: # return recorded z-score for entry C=CCC(OC(C)=O)[C@@H]1[C@@H](N(Cc2cc3ccccc3o2)C(=O)c2ccc(C)cc2)c2cc(OCCCO)ccc2N1C(=O)c1ccc2ccccc2c1 (stereo not given in full)
Result: 0.89

Request: # return recorded z-score for entry O=C1OCCC=C[C@H]2OC34C=CCN(c5ccc6ccccc6c5)C(=O)[C@H]3N(CCCCCO)C(=O)[C@@H]4C12 (stereo not given in full)
Result: 0.913

Request: # return recorded z-score for entry COC(=O)[C@@]1(Cc2ccccc2)[C@H]2c3cc(C(=O)N(C)C)n(Cc4cc(C)n(C)n4)c3C[C@H]2CN1C(=O)c1ccccc1
Result: -0.925

Request: # return recorded z-score for entry C=CC[C@]1(C(=O)N2CCOCC2)N=C(c2ccc(OCCCO)cc2)O[C@H]1c1ccccc1
Result: 0.486

Request: # return recorded z-score for entry O=C1O[C@H](c2ccccc2)[C@H](c2ccccc2)N2[C@H]1[C@@H](C(=O)N1CCN(c3ncccn3)CC1)[C@]1(C(=O)Nc3ccccc31)[C@H]2c1ccc(OCCO)cc1
Result: -1.33

Request: # return recorded z-score for entry C=C[C@H](COC(C)=O)N(Cc1ccc(OC(C)=O)c(OC)c1)S(=O)(=O)c1ccc(Br)cc1
Result: -0.87

----------
- Protocol description: small-molecule binders of probe aLefty1, primary screen, biochemical, small-molecule microarray, 635/667 nm fluorescence (AID 1153);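 note: score merges spot fluorescence with signal-to-noise ratio from the scanned slide images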
- Experimental context: higher = more signal
Measured metric: composite z-score

See these solved cases before continuing.
>  <Molecule>
[N-]=[N+]=NCc1ccccc1C[C@@]1(C(=O)N2CCOCC2)N=C(c2ccc(OCCCO)cc2)O[C@@H]1c1ccccc1CN=[N+]=[N-]

>  <Result>
0.429

$$$$
>  <Molecule>
O=C1C2C=CC(C(O)c3ccc(F)cc3)N(Nc3ccccc3)C2C(=O)N1c1ccccc1 (configuration not stated)

>  <Result>
0.374

$$$$
>  <Molecule>
O=C(CS)NCCCCCCNC(=O)[C@@H]1C[C@@H]2C(=O)N3CCC[C@H]3C(=O)N2[C@@H]1c1ccc(O)cc1

>  <Result>
-0.55

$$$$
>  <Molecule>
CC(C)(C)OC(=O)CC[C@]1(C(=O)N2CCCCC2)N=C(c2ccc(OCCCO)cc2)O[C@H]1c1ccccc1N=[N+]=[N-]

>  <Result>
0.19

$$$$

Request: # return recorded composite z-score for entry COC(=O)[C@@]1(Cc2ccccc2)[C@H]2c3cc(C(=O)N(C)C)n(Cc4cc(C)n(C)n4)c3C[C@H]2CN1C(=O)c1ccccc1
Result: 0.33

Request: # return recorded composite z-score for entry CC(C)=CCCC(C)=CC(O)C1C=CC2C(=O)N(c3ccccc3)C(=O)C2N1Nc1ccccc1 (configuration not stated)
Result: 0.805

Request: # return recorded composite z-score for entry [N-]=[N+]=NCc1ccccc1C[C@@]1(C(=O)NCC(O)CO)N=C(c2ccc(OCCCO)cc2)O[C@@H]1c1ccccc1CN=[N+]=[N-] (some centres not stated)
Result: 0.455
